Tested on: mouse microsomal triglyceride transfer protein mRNA
method: Antisense inhibition of mouse microsomal triglyceride transfer protein mRNA levels in primary hepatocytes, quantitative real-time PCR
Type: cell-based
Set-up: concentration or dose not given beside the values
experimental.parameters: averages from two experiments
Strand notation (5' to 3'): a small letter for the sugar, then the base; units joined by * are phosphorothioate-linked, units joined directly phosphodiester-linked; [ ] holds rarer units or linkages, { } end groups; capitals alone tell only the bases. e = 2'-O-(2-methoxyethyl) (MOE); [5mC] = 5-methylcytosine; d = 2'-deoxy (DNA)
readout.kind: % INHIB (inhibition of mouse microsomal triglyceride transfer protein mRNA levels)

Sample records with % INHIB (inhibition of mouse microsomal triglyceride transfer protein mRNA levels):
144491 (e[5mC]*eA*eG*e[5mC]*eA*dG*d[5mC]*dG*dG*d[5mC]*dA*dG*dT*dT*dG*eT*eG*e[5mC]*eG*e[5mC]; antisense) [compound 144491]    26%
144471 (e[5mC]*eA*eT*e[5mC]*eA*d[5mC]*d[5mC]*dA*dT*d[5mC]*dA*dG*dG*dA*dT*eT*e[5mC]*e[5mC]*eT*e[5mC]; antisense) [compound 144471]    21%
144486 (eA*eT*eT*e[5mC]*eT*dG*dA*d[5mC]*dA*d[5mC]*dA*dG*d[5mC]*dT*dT*e[5mC]*e[5mC]*eT*eG*eA; antisense) [compound 144486]    34%
CCCAGCACCTGGTTTGCCGT (all phosphorothioate, sugars by position and methylation of C not given here; 2'-MOE wings and deoxy gap) [ISIS 144477, 2′-MOE gapmer phosphorothioate antisense oligonucleotide to mouse MTP]    at least 30%

The measured % INHIB (inhibition of mouse microsomal triglyceride transfer protein mRNA levels) associated with 144505 (eA*eG*e[5mC]*e[5mC]*eT*dT*dG*dT*d[5mC]*d[5mC]*dA*dT*d[5mC]*dT*dG*e[5mC]*eA*eT*eG*e[5mC]; antisense) [compound 144505] reads 24%

The measured % INHIB (inhibition of mouse microsomal triglyceride transfer protein mRNA levels) associated with 144501 (eG*eA*e[5mC]*e[5mC]*eA*d[5mC]*d[5mC]*d[5mC]*dT*dG*dG*dA*dT*d[5mC]*dT*e[5mC]*e[5mC]*eA*eT*eA; antisense) [compound 144501] reads 52%

The measured % INHIB (inhibition of mouse microsomal triglyceride transfer protein mRNA levels) associated with CACCTGCCACTTGCTTCCCG (all phosphorothioate, sugars by position and methylation of C not given here; 2'-MOE wings and deoxy gap) [ISIS 144479, 2′-MOE gapmer phosphorothioate antisense oligonucleotide to mouse MTP] reads at least 30%

The measured % INHIB (inhibition of mouse microsomal triglyceride transfer protein mRNA levels) associated with 144480 (eG*e[5mC]*eT*e[5mC]*eG*dA*dG*dG*dA*d[5mC]*d[5mC]*dT*dG*dT*d[5mC]*e[5mC]*e[5mC]*eA*e[5mC]*eA; antisense) [compound 144480] reads 51%

The measured % INHIB (inhibition of mouse microsomal triglyceride transfer protein mRNA levels) associated with 144493 (eG*e[5mC]*e[5mC]*eA*eG*dT*dA*dT*dA*dG*dG*d[5mC]*dA*dG*dA*eA*eG*eA*eG*eG; antisense) [compound 144493] reads 24%

###

Each item that follows carries a reported % INHIB (inhibition of mouse microsomal triglyceride transfer protein mRNA levels).
Tested on: mouse microsomal triglyceride transfer protein mRNA
method: Antisense inhibition of mouse microsomal triglyceride transfer protein mRNA levels in primary hepatocytes, quantitative real-time PCR
Format: cell-based
Set-up: concentration or dose not given beside the values
experimental.parameters: averages from two experiments
Strand notation (5' to 3'): a small letter for the sugar, then the base; units joined by * are phosphorothioate-linked, units joined directly phosphodiester-linked; [ ] holds rarer units or linkages, { } end groups; capitals alone tell only the bases. e = 2'-O-(2-methoxyethyl) (MOE); [5mC] = 5-methylcytosine; d = 2'-deoxy (DNA)
Please respond with the number in % and leave the unit unwritten.

144492 (eT*eG*e[5mC]*eA*e[5mC]*dA*dA*d[5mC]*dG*dG*dT*dG*dA*dG*d[5mC]*eA*eT*eG*eT*eA; antisense) [compound 144492]    39
144497 (e[5mC]*eT*e[5mC]*eT*e[5mC]*d[5mC]*dT*dT*d[5mC]*dA*dT*d[5mC]*dA*dG*dG*eA*eG*eT*eG*eG; antisense) [compound 144497]    57
144476 (e[5mC]*e[5mC]*e[5mC]*eA*eG*dA*dG*dA*dT*dA*dT*d[5mC]*dT*dA*d[5mC]*e[5mC]*eT*e[5mC]*eG*eT; antisense) [compound 144476]    19

Could you now consider this next substance?
The measured % INHIB (inhibition of mouse microsomal triglyceride transfer protein mRNA levels) associated with 144508 (e[5mC]*eG*eT*e[5mC]*eA*dT*dA*dG*d[5mC]*dA*dT*dA*dT*d[5mC]*dG*eT*eT*e[5mC]*eT*eG; antisense) [compound 144508] reads 0
